- tgt: T1, human activated protein C (human, UniProt P04070 43-197; P04070 212-461)
- T1 construct: also called human aPC; human APC
- assay.text: SPR (Biacore), 1:1 binding model
Below is a list of entries, each paired with its recorded kon value.
Lab book: enter the figure in M⁻¹ s⁻¹, no units written.

* Hu1573-11 (antibody, V domains shown, Humanized IgG, human gamma 1 / kappa constant regions by vectors pCP-hCg1 and pCP-hck; also called H1573VH.1D + H1573Vk.2B) VH: EVQLVESGGGLVQPGGSLRLSCAASGFTFSNYYLNWVRQAPGKGLEWVGDIRLKSNNYEKHYAESVKGRFTISRDDSKSSLYLQMNSLKTEDTAVYYCIREGDYFDYWGQGTTVTVSS VL: DIVMTQTPLSLSVTPGQPASISCRASESVDSFGATFMHWYLQKPGQPPQLLIYLASNLESGVPDRFSGSGSRTDFTLKISRVEAEDVGVYYCQQNNEDPYTFGQGTKLEIKR | 1.38e+06
* Hu1573-12 (antibody, V domains shown, Humanized IgG, human gamma 1 / kappa constant regions by vectors pCP-hCg1 and pCP-hck; also called H1573VH.1E + H1573Vk.2) VH: EVQLVESGGGLVQPGGSLRLSCAASGFTFSNYYLNWVRQAPGKGLEWVADIRLKSNNYEKHYAESVKGRFTISRDDSKNSVYLQMNSLKTEDTAVYYCIREGDYFDYWGQGTTVTVSS VL: DIVMTQTPLSLSVTPGQPASISCRASESVDSFGATFMHWYLQKPGQPPQLLIYLASNLESGVPDRFSGSGSGTDFTLKISRVEAEDVGVYYCQQNNEDPYTFGQGTKLEIKR | 1.4e+06
* 1573 mouse (antibody, V domains shown, Parental murine monoclonal antibody; also called mouse aPC monoclonal antibody 1573; HAPC1573) VH: EVKLEESGGGLVQPGGSMKLSCVASGFTFSNYYLNWVRQSPEKGLEWVADIRLKSNNYEKHYAESVKGRFTISRDDSKSSVYLQMNNLRAEDTGIYYCIREGDYFDYWGQGTTLTVSS VL: NIVLTQSPASLAVSLGQRATISCRASESVDSFGATFMHWYQQKPGQPPKLLIYLASNLESGVPARFSGSGSRTDFTLTIDPVEADDAATYYCQQNNEDPYTFGGGTKLEIKR | 948000

Can you share its kon? I mean this binder: Hu1573-16 (antibody, V domains shown, Humanized IgG, human gamma 1 / kappa constant regions by vectors pCP-hCg1 and pCP-hck; also called H1573VH.1F + H1573Vk.2A) VH: EVQLVESGGGLVQPGGSLRLSCAASGFTFSNYYLNWVRQAPGKGLEWVADIRLKSNNYEKHYAESVKGRFTISRDDSKSSVYLQMNSLKTEDTAVYYCIREGDYFDYWGQGTTVTVSS VL: DIVLTQTPLSLSVTPGQPASISCRASESVDSFGATFMHWYLQKPGQPPQLLIYLASNLESGVPDRFSGSGSGTDFTLKISRVEAEDVGVYYCQQNNEDPYTFGQGTKLEIKR 1.42e+06

Can you share its kon? I mean this binder: Hu1573-2 (antibody, V domains shown, Humanized IgG, human gamma 1 / kappa constant regions by vectors pCP-hCg1 and pCP-hck; also called H1573VH.1A + H1573Vk.2C) VH: EVQLVESGGGLVQPGGSLRLSCAASGFTFSNYYLNWVRQAPGKGLEWVGDIRLKSNNYEKHYAESVKGRFTISRDDSKNSLYLQMNSLKTEDTAVYYCIREGDYFDYWGQGTTVTVSS VL: DIVLTQTPLSLSVTPGQPASISCRASESVDSFGATFMHWYLQKPGQPPQLLIYLASNLESGVPDRFSGSGSRTDFTLKISRVEAEDVGVYYCQQNNEDPYTFGQGTKLEIKR 1.35e+06
